measurementNotes: Primary qHTS for inhibitors of nuclear receptor binding SET domain protein 2 (NSD2) in an isogenic RCH-ACV NSD2 p.E1099K mutant (9B) (AID 1645876); note: nearly all actives have a fitted effect of over 70% in size; for activity change, negative = viability loss: % is set by controls: 0 for no effect and ±100 for the full control effect
protocolConditions: RCH-ACV (leukaemia line) NSD2 E1099K (9B) viability, CellTiter-Glo, 72 h; series mostly up to 44.9 µM
Records with an inconclusive call do not appear. Calls of active or inactive are those of the source. Calls come from the whole dose curve; as a rule, active = well fitted inhibition curve with a large enough effect; inconclusive = small, poorly fitted or top-dose-only effect; inactive = flat fitted curve, though single readings scatter.
quantityMeasured: activity change, negative = viability loss

{"columns": ["molecule", "experimentalValue"],
 "data": [
  ["CC(=O)OC[C@@]12[C@H](O)C[C@@H](C)[C@]3(C[C@@H](c4ccoc4)OC3=O)[C@H]1C[C@H](O)C[C@]21CO1", "inactive"],
  ["C=C(C)C(C)C1OC23CC4(CO2)C(CCC2C5(C)CCC(OC6OCC(O)C(OC7OC(CO)C(O)C(OC8OCC(O)C(O)C8O)C7O)C6OC6OC(CO)C(O)C6O)C(C)(C)C5CCC24C)C3C(C)(O)C1OC(C)=O (centres undefined)", "-26.7% [at 9.23 µM] (inactive)"],
  ["C=CC(C)(C)C1(CC2NC(=O)C3CCCN3C2=O)C(=O)Nc2cc3c(cc21)C=CC(C)(C)O3 (centres undefined)", "inactive"],
  ["CC(=O)OC[C@@]12[C@H](O)C[C@]3(C)C(=CCC4[C@@]5(C)CC[C@H](O[C@@H]6O[C@H](C(=O)O)[C@@H](O[C@@H]7O[C@H](CO)[C@@H](O)[C@H](O)[C@H]7O)[C@H](O)[C@H]6O[C@@H]6O[C@H](CO)[C@@H](O)[C@H](O)[C@H]6O)[C@](C)(CO)C5CC[C@]43C)[C@@H]1CC(C)(C)[C@@H](OC(C)=O)[C@@H]2O (some centres undefined)", "3.64% [at 9.23 µM] (inactive)"],
  ["CC(=O)OC1C=C(C(=O)O)C2(CO)CCC(C)C(C)(CCc3ccoc3)C2C1 (centres undefined)", "inactive"],
  ["CC1CCC(=O)CC(O)C(O)CC(=O)O1 (centres undefined)", "inactive"],
  ["CC(C)(O)C1CCC2(C)C3C(O)C4C(C13)C42CO (centres undefined)", "inactive"],
  ["Cc1nn(C)c2c1C(c1ccc(C(F)(F)F)cc1)C(C#N)=C(N)O2 (centres undefined)", "inactive"],
  ["C[C@]12CC[C@@H]3c4ccc(O[C@@H]5O[C@H](C(=O)O)[C@@H](O)[C@H](O)[C@H]5O)cc4CC[C@H]3[C@@H]1CCC2=O", "inactive"],
  ["C/C=C/C1=CC2=CC(=O)C(C)(O)C(OC(=O)c3c(C)cc(O)cc3O)C2CO1 (centres undefined)", "inactive"]
]}

Please give measured activity change, negative = viability loss of the following entry: O=C(O)CCc1cccc(O[C@@H]2O[C@H](CO)[C@@H](O)[C@H](O)[C@H]2O)c1O
inactive

Input COC1CC(=O)CCC(C)OC(=O)CC1O (centres undefined) , output reported activity change, negative = viability loss.
inactive

Return activity change, negative = viability loss (reported value) for this molecule: C[C@@H]1O[C@@H](O[C@H]2[C@H](O[C@H]3[C@H](O[C@H]4CC[C@@]5(CO)C(CC[C@]6(C)C5CC=C5C7CC(C)(C)C[C@@H](O)[C@]7(C)CC[C@]56C)C4(C)C)O[C@H](C(=O)O)[C@@H](O)[C@@H]3O)OC[C@@H](O)[C@@H]2O)[C@H](O)[C@H](O)[C@H]1O (some centres undefined)
-1.45% [at 9.23 µM] (inactive)

Look up activity change, negative = viability loss of CC1(CO)CC2C(O)C(=O)C3(CO)CC3(C)C2C1 (centres undefined) and report it.
inactive
